MEASUREMENT_NAME: melting point

Worked set:
CCOC(=O)c1cc(O)ccc1OCC	49 to 53 °C
Cc1ncsc1C(C)(O)c1cccs1 (stereo not given)	146 to 148 °C
CON=C(OC)C(=O)c1nccn1Cc1ccccc1	55 to 58 °C
COC(=O)c1cccc(NC(=S)Nc2cc(C(=O)Nc3ccccc3)ccc2OC)c1	178 to 180 °C
CC(=NO)c1cccc(C(F)(F)F)c1	63 to 65 °C

INPUT: Which melting point is reported for this molecule? `COc1ccc2c(c1)c(CC(=O)OCC(=O)O)c(C)n2C(=O)c1cccc(C(F)(F)F)c1`
OUTPUT: 136 to 138 °C

INPUT: Record: CC1(C(=O)Nc2ccc(-n3nc(C(F)(F)F)cc3C(F)(F)F)cc2)C=CCCC1 (stereo not given)
OUTPUT: 108 to 110 °C

INPUT: And for `CC(=S)NC[C@H]1CN(c2ccc(N3CCC(=C(C)C#N)CC3)c(F)c2)C(=O)O1` ?
OUTPUT: 171 to 172 °C

INPUT: `CC(C)NCCCS(=O)(=O)O` ?
OUTPUT: 240 to 243 °C

INPUT: Now consider `COc1c(C2CCN(CCCCNC(=O)c3ccc(-c4ccc(Cl)s4)nc3)CC2)ccc2c1CCCC2` and answer again.
OUTPUT: 175 to 177 °C

----------
Reported melting point values for the following compounds.

INPUT: Reported melting point, compound `COc1ccccc1N1CCN(CCn2c(=O)[nH]c3scc(C)c3c2=O)CC1` : ____
OUTPUT: 209 to 213 °C

INPUT: Next compound up: `COc1cccnc1CO`
OUTPUT: 72.5 to 73.5 °C

INPUT: Note, next up: `CCOCc1cc(OC)c(-c2ccc(C[C@H](NC(=O)c3c(Cl)cccc3Cl)C(=O)OCC)cc2)c(OC)c1`
OUTPUT: 91 to 94 °C

----------
MEASUREMENT_NAME: melting point

// below: answered compounds
Nc1c(-c2ccc(Cl)cc2Cl)nnn1Cc1ccc(S(N)(=O)=O)cc1	204 to 206 °C
Cn1c(=O)c(Oc2ccc(F)cc2F)cc2cnc(Cl)cc21	168 to 170 °C
CC1=NNC(=O)c2cccc3[nH]cc1c23	335 to 336 °C
CCOc1ccc2c(c1)n(C13CC4CC(CC(C4)C1)C3)c(=O)n2S(=O)(=O)c1ccc(N)cc1OC	248 °C
CCSC(=NC(=O)c1ccccc1)Nc1ccccc1F	95 to 97 °C
CCCCCCCCCC(=O)Nc1cc(C(=O)O)c2cc[nH]c2c1	248 to 250 °C

INPUT: # lookup: melting point of `CCc1nc(C)cn1S(=O)(=O)c1c[nH]cn1`
OUTPUT: 147 to 148 °C

INPUT: Same lookup for `COc1c(O)ccc(C(=O)c2ccccc2)c1[N+](=O)[O-]` , please.
OUTPUT: 169 to 171 °C

INPUT: Same lookup for COc1ccc2[nH]c3c(c2c1)CCC(NC(C)=O)C3 (stereo not given) , please.
OUTPUT: 191 to 193 °C

INPUT: Next entry: `Cc1nc2cc(C(C)C)ccc2n1C`
OUTPUT: 130 to 131 °C

INPUT: One more compound: `COC(=O)C(=Cc1cc(OC)c(OC)cc1Br)c1ccccc1C(=O)O`
OUTPUT: 129 to 130 °C

INPUT: Subsequent entry: `CCCCN(N)C(=O)NC`
OUTPUT: 48 to 50 °C

INPUT: What about this compound? `N=C(N)c1ccc(C(=O)NCCCC(=O)NCCC(=O)O)cc1`
OUTPUT: > 250 °C

INPUT: Another compound to look at: `CCC(=O)OCCc1ccc2c(c1)C(=O)c1ccccc1CO2`
OUTPUT: 71.5 to 73.5 °C

INPUT: Also, `CNC(=O)c1cnn(C(C)(C)C)c1C#N` please.
OUTPUT: 162 to 165 °C

----------
Reported melting point is given for each of the following molecules.

COc1cccc(N2CCCN(c3ccnc4sc(C(N)=O)c(N)c34)CC2)c1	193 to 195 °C

INPUT: Look at this molecule and give its reported melting point. O=C1CCC(c2ccccc2)N1c1ccccc1 (centres undefined)
OUTPUT: 106 to 108 °C

INPUT: Same thing, different molecule: `CSc1ccc2c(c1)Cc1ccc(CO)cc1O2`
OUTPUT: 151 to 153 °C

INPUT: # repeat for CC(CS(=O)(=O)c1ccc(-c2ccc(C(F)(F)F)cc2)cc1)N(O)C=O (centres undefined)
OUTPUT: 175 °C

INPUT: Another molecule to look at: `O=Cc1ccc(-c2ccc(-c3ccc(C=O)o3)cc2)o1`
OUTPUT: 233 to 234 °C

INPUT: Queued: `O=C(c1ccc(-n2ccc(C3CC3)n2)cc1C(F)(F)F)N1Cc2cccn2Cc2ccccc21`
OUTPUT: 163 to 164 °C

INPUT: // repeat for `COc1cc2ncc(C#N)c(Nc3cccc(NC(C)=O)c3)c2cc1OC` and report
OUTPUT: 147 to 150 °C

INPUT: For `CCCN1CCN(CCCOc2cc3ncc(C#N)c(Nc4cc(OC)c(Cl)cc4Cl)c3cc2OC)CC1` then?
OUTPUT: 97 to 101 °C

INPUT: Do the same for `CC(=O)N1CCC(=O)NCc2ccccc21` please
OUTPUT: 236 to 239 °C

----------
MEASUREMENT_NAME: melting point

Recorded results for 6 compounds are shown here.
Nc1ccc(Oc2ccc(O)cc2)cc1	130 to 134 °C
Cn1cnc(S(=O)(=O)N2CCC3(CC2)CSC2=C(O3)c3ccccc3C(=O)C2=O)c1	256 to 257 °C
COc1ccc(Nc2nc(Nc3ccc(OC)c(Cl)c3)nc(NC3CCCCCC3)n2)cc1Cl	183 °C
CN1C(=O)N(c2c(Cl)cccc2Cl)Cc2cnc(Nc3ccc(CCO)cc3)nc21	148 to 151 °C
CC[C@@]1(C)OC(=O)C(c2ccc(F)cc2)=C1c1ccc(S(C)(=O)=O)cc1	120 to 121 °C
Cc1c(S(=O)c2cc(Cl)c(Cl)cc2Cl)cc(C(C)(C)C)c(O)c1C(=O)Nc1ccc([N+](=O)[O-])cc1Cl (stereo not drawn)	245 to 246 °C

INPUT: Item under review: `COc1cccc2c1sn1c3ccccc3c(=O)cc21` . Reported melting point?
OUTPUT: 245 to 251 °C

INPUT: // same read-out, input: `COc1cc(C(=O)Nc2cccc3c2CN(C)CC3)cc(OC)c1OC`
OUTPUT: 177 to 178 °C

----------
melting point listing for selected compounds.

Record excerpt, results attached:
COc1ccccc1-n1c(=O)[nH]c2c(C(N)=O)nc(N[C@H]3CC[C@H](OC(N)=O)CC3)nc21	157 to 160 °C
O=c1c2c(Cl)cc(Cl)cc2n(Cc2ccccc2)c(=O)n1Cc1cccc(I)c1	155 to 157 °C

Continue with the next compound.
INPUT: Requested field: melting point. Item: CC1CCCN(C(=O)C2C(C)c3ccccc3N2c2ccc(Cl)nn2)C1 (stereo not drawn)
OUTPUT: 169 to 171 °C

----------
Overview of recorded melting point for various molecules

Solved cases (4 shown):
CS(=O)(=O)c1ccc(-c2cnn(CC(F)(F)F)c(=O)c2Cc2cccc(F)c2)cc1	58 to 62 °C
Cc1ccc(C(O)(c2ccc(C)cc2)C2CCN(Cc3ccccc3)CC2)cc1	115 to 117 °C
O=C(Nc1nc(-c2ccccc2)c(-c2nc3ccccc3c(=O)n2-c2ccccc2Cl)s1)c1ccccc1	212 to 214 °C
CS(=O)(=O)OCC1CSC2=C(O1)c1ccccc1C(=O)C2=O (stereo not given)	230 to 232 °C

Could you now consider this next molecule?
INPUT: Fill blank: measured melting point of the molecule `N#Cc1cc2sccc2nc1I` is ____.
OUTPUT: 190 to 191 °C

----------
Here the recorded melting point is given for each entry.

Please review the entries below; each comes with its answer.
Cc1ccc2cc3nc4cccc(Cl)c4c-3[nH]c2c1	193 to 194 °C
CCOC(=O)CC(c1cccnc1)N1C(=O)c2ccccc2C1=O (centres undefined)	72.3 to 72.8 °C
Cc1cc(C2(C(F)(F)F)CC(c3ccc(F)cc3)=NO2)ccc1NC(=O)c1cccc(N)c1C(=O)NC(C)C (centres undefined)	122 to 124 °C
CCCNC(=O)N1Cc2cccn2-c2ccsc2C1=O	120 °C

INPUT: May I ask what melting point has been recorded for `CNC(=O)c1ccccc1Nc1nc(Nc2ccc3c(c2)OCCNC3=O)ncc1Cl` ?
OUTPUT: 293 to 295 °C

INPUT: Now try `COc1cc(Nc2nccc(Nc3ccc(N4CCOCC4)cc3)n2)cc(OC)c1OC` .
OUTPUT: 214 °C

----------
Below, each of the compounds is paired with its reported melting point value.

O=C(O)c1cc2cc(Cl)ccc2nc1N[C@@H](CO)Cc1ccccc1	213 to 216 °C
CC(C)=NOCc1nc2c(N)nc3cc(-c4ccccc4)cnc3c2n1CC(C)C	196 to 197 °C

Now look at this one.
INPUT: Request the reported melting point associated with `Cc1[nH]c2ccccc2c1CCC(=O)N1CCN(c2ccccc2)CC1`
OUTPUT: 120 to 121 °C
